target: Cytochrome P450 2C9 (Homo sapiens); assay: Cytochrome panel assay with activity outcomes; conditions: recombinant CYP, pro-luciferin dealkylation, luminescence, p450-cyp2c9; series mostly up to 57.1 µM
The campaign covered roughly 16,000 compounds. About 4,000 (25%) were called active. Roughly 26% stayed inconclusive and do not appear here. Calls follow the shape of the dose curve; as a rule, active = well fitted curve in the direction sought with a large enough effect; inconclusive = small, poorly fitted or top-dose-only effect, or effect the other way; inactive = no such curve, though single readings can be large or run the other way. Not all results are given here.
Labels: active, inactive

compound=C[n+]1cc2c3c(ccc2c2ccc4cc5c(cc4c21)OCO5)OCO3 label_class=inactive
compound=Cc1cc2[nH]c(=O)c3ccccc3n2n1 label_class=inactive
compound=CN(C)c1ncc2nc(CCc3ccccc3)c(=O)n(C3CC3)c2n1 label_class=active
compound=Fc1ccccc1NC(=S)NCCc1ccccc1 label_class=active
compound=COC(=O)[C@@]1(Cc2ccc(F)cc2)[C@H]2c3cc(C(=O)N4CCCC4)n(Cc4ccc(C)c(F)c4F)c3C[C@H]2CN1C(=O)c1ccccc1 label_class=active
compound=Cc1c(O)c(=O)n(-c2ccccc2)n1C label_class=inactive
compound=CCOc1cc2[nH]c(=S)n(CCC(=O)N3CCc4ccccc4C3)c(=O)c2cc1OCC label_class=active
compound=COc1cccc(-c2cc(C(F)(F)F)n3ncc(S(=O)(=O)c4ccccc4)c3n2)c1 label_class=inactive
compound=CON(c1nc(N(C)C)nc(N(C)C)n1)S(=O)(=O)c1ccccc1Cl label_class=active
compound=CCCNS(=O)(=O)c1ccc(OCC(=O)OC)cc1 label_class=active
compound=C/C(CCN1CCCCc2nc(C)c(C)cc21)=N\O[C@@H](C)c1cc(-c2c(C)cc(C)cc2C)no1 label_class=active
compound=Cn1c(-c2ccccc2)cnc1N label_class=inactive
compound=COC(=O)[C@@]1(Cc2ccc(F)cc2)[C@H]2c3cc(C(=O)N4CCCC4)n(Cc4ccccc4)c3C[C@H]2CN1C(=O)c1ccccc1 label_class=active
compound=NS(=O)(=O)c1cc2c(cc1C(F)(F)F)N[C@H](Cc1ccccc1)NS2(=O)=O label_class=inactive
compound=O=c1c2ccccc2ncn1CCCSc1ccccc1 label_class=active
compound="Cc1ccc(C(C(=O)NCc2ccco2)N(C(=O)CNC(=O)c2cccs2)c2ccc(C)cc2C)cc1 (configuration not stated)" label_class=active
compound=C1CCC(N=C(NC23CC4CC(CC(C4)C2)C3)N2CCOCC2)CC1 label_class=inactive
compound=O=C(CCCN1CCC(O)(c2ccc(Br)cc2)CC1)c1ccc(F)cc1 label_class=inactive
compound=CN1CCC(=C2c3ccccc3CC(=O)c3sccc32)CC1 label_class=inactive
compound="CC(=O)NC(CCS(C)(=O)=O)C(=O)Nc1c(F)cccc1F (configuration not stated)" label_class=inactive
compound="Cc1ccc(-c2nnc(C)c(N3CC(C)OC(C)C3)n2)cc1 (configuration not stated)" label_class=active
compound=CC(C)(C)c1cc(/C=C(\C#N)C(N)=S)cc(C(C)(C)C)c1O label_class=active
compound=BrC(c1cccc2ccccc12)c1cccc2ccccc12 label_class=active
compound=Fc1cc(Br)ccc1NC(=S)NCCc1ccccc1 label_class=active
compound=COc1ncc2nc(CCc3ccccc3)c(=O)n(C3CC3)c2n1 label_class=active
compound=Cc1nc2c(O)cccc2c(=O)[nH]1 label_class=active
compound=COc1ccc(-c2cc(C(F)(F)F)n3nc(C(=O)N4CCCCC4)cc3n2)cc1 label_class=active
compound=CC(C)N1CCC(=NNC(=O)c2ccc(Br)o2)CC1 label_class=inactive
compound=COC(=O)[C@@]1(Cc2ccc(F)cc2)[C@H]2c3cc(C(=O)N4CCCC4)n(Cc4ccc(OC(F)(F)F)cc4)c3C[C@H]2CN1C(=O)c1ccccc1 label_class=active
compound=CS(=O)(=O)N1CCN(c2ccccc2NC(=O)c2ccc(Br)o2)CC1 label_class=active
compound=O=C1c2cccnc2C(=O)N1Cc1ccc(F)cc1 label_class=inactive
compound="CCOC(=O)C1CCCN(C(=O)c2cc3nc(-c4ccc5c(c4)OCO5)cc(C(F)(F)F)n3n2)C1 (configuration not stated)" label_class=active
compound=O=c1[nH]c2ccccc2c2ccccc12 label_class=inactive
compound=O=C(c1ccccc1)c1ccc(OCCn2cnc3ccccc3c2=O)cc1 label_class=active
compound=CC(C)(CO)Cc1cc(C(C)(C)C)c(O)c(C(C)(C)C)c1 label_class=inactive
compound=COC(=O)[C@@]1(Cc2ccc(F)cc2)[C@H]2c3cc(C(=O)N4CCCC4)n(Cc4ccc(S(C)(=O)=O)cc4)c3C[C@H]2CN1C(=O)c1ccccc1 label_class=active
compound=O=C(O)Cc1sc(-c2ccc(Cl)cc2)nc1-c1ccccc1 label_class=active
compound=Cc1ccc(O)c(C(=O)c2cc(C#N)c(=O)n(-c3c(C)n(C)n(-c4ccccc4)c3=O)c2)c1 label_class=active
compound="Cc1ccc(NC2c3ncccc3C(=O)N2Cc2ccc(F)cc2)cc1 (configuration not stated)" label_class=active
compound=Cc1cc2cc3c(cc2nc1SCC(=O)Nc1c(C)cccc1C)CCC3 label_class=active
compound=CC[N+](CC)(CC)CC(=O)Nc1c(C)cccc1C label_class=inactive
compound=COc1c(O[C@H]2O[C@@H](CO)[C@@H](O)[C@@H](O)[C@@H]2O)cc2c(c1OC)-c1ccc(SC)c(=O)cc1[C@H](NC(C)=O)CC2 label_class=inactive

====

molecular target: Cytochrome P450 2C9 (Homo sapiens); experiment: Cytochrome panel assay with activity outcomes; settings: recombinant CYP, pro-luciferin dealkylation, luminescence, p450-cyp2c9; series mostly up to 57.1 µM
Screen size: about 16,000 compounds; about 4,000 (25%) were called active. Another 26% or so got no clear call; they are omitted. Calls follow the shape of the dose curve; as a rule, active = well fitted curve in the direction sought with a large enough effect; inconclusive = small, poorly fitted or top-dose-only effect, or effect the other way; inactive = no such curve, though single readings can be large or run the other way. A selection follows.
Labels: Y for active, N for inactive

smiles_representation=O=C(c1ccncc1)N1CCC2(CCN(Cc3nccs3)CC2)CC1 label_class=N
smiles_representation=O=C(Nc1ccc(F)cc1Cl)c1ccc2c(=O)n3c(nc2c1)CCCCC3 label_class=N
smiles_representation=O=C(c1cc(C(F)(F)F)cc(C(F)(F)F)c1)N1CCC[C@@]2(CCN(Cc3nccs3)C2)C1 label_class=N
smiles_representation=CNC(=O)c1sc(-c2cccnc2)nc1C label_class=N
smiles_representation=O=c1c2ccccc2nc2n1CCC2 label_class=N
smiles_representation=O=c1[nH]c2cc(Cl)ccc2c(O)c1-c1ccc(Oc2ccccc2)cc1 label_class=Y
smiles_representation=C/C(=N\OC(=O)NC1CCCCC1)c1sc(-c2ccccc2)nc1C label_class=Y
smiles_representation=CNC(=O)c1nnn(Cc2ccccc2)c1NC(=O)C(F)(F)F label_class=Y
smiles_representation=COc1cc(-c2nnc(SC/C=C/c3ccccc3)n2N)cc(OC)c1OC label_class=N
smiles_representation=O=C(c1cc(C(F)(F)F)cc(C(F)(F)F)c1)N1CCC2(CCN(Cc3nccs3)CC2)CC1 label_class=Y
smiles_representation=O=C(c1cccc(F)c1)N1CCC2(CCN(Cc3nccs3)CC2)CC1 label_class=Y
smiles_representation=CCN(c1ccccc1)S(=O)(=O)c1ccc(NC(=S)NC(=O)c2ccc(Br)o2)cc1 label_class=Y
smiles_representation=O=C(c1cccc(F)c1)N1CCC2(CCCN(Cc3nccs3)C2)CC1 label_class=N
smiles_representation=CCN(c1ccccc1)S(=O)(=O)c1ccc(NC(=S)NC(=O)c2cccs2)cc1 label_class=Y
smiles_representation=Cc1ccc(-n2c(O)cnc2Nc2nc(C)cc(C)n2)cc1 label_class=N
smiles_representation=CC(C)CN1CC[C@@]2(CCCN(C(=O)c3cc(C(F)(F)F)cc(C(F)(F)F)c3)C2)C1 label_class=N
smiles_representation=O=C(c1cc(C(F)(F)F)cc(C(F)(F)F)c1)N1CCC2(CCCN(Cc3nccs3)C2)CC1 label_class=N
smiles_representation=CN(C1CCCCC1)S(=O)(=O)c1ccc(NC(=S)NC(=O)c2cccs2)cc1 label_class=Y
smiles_representation=C=CCSc1nnc(-c2cc3c(-c4ccccc4)nn(C)c3s2)n1C label_class=Y
smiles_representation=Cc1ccc(NC(=O)N/C=C/c2ccco2)cc1C label_class=Y
smiles_representation=O=C(NC1CCCCCC1)c1cccs1 label_class=N
smiles_representation=O=c1c2c(-c3ccc(Cl)cc3)csc2nc2n1CCC2 label_class=Y
smiles_representation=CCCOc1ccc(-c2nc(N)n[nH]2)cc1 label_class=N

====

biological target: Cytochrome P450 2C9 (Homo sapiens) (UniProt P11712); assay: Cytochrome panel assay with activity outcomes; conditions: recombinant CYP, pro-luciferin dealkylation, luminescence, p450-cyp2c9; series mostly up to 57.1 µM
Sequence (P11712 whole entry, looked up): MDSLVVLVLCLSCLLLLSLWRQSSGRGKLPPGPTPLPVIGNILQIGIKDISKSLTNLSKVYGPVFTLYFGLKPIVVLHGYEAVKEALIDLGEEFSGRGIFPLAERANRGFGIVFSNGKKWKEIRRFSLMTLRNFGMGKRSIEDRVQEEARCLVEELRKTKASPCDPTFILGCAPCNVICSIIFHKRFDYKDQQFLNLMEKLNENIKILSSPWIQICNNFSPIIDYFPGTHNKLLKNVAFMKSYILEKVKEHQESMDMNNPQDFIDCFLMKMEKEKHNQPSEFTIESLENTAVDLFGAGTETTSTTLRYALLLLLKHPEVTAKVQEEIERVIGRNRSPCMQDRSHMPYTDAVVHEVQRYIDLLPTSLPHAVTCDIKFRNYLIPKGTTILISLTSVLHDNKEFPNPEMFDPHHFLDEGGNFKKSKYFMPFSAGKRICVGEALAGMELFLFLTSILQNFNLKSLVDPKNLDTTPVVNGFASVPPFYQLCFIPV
The whole screen tested about 16,000 compounds, of which about 4,000 (25%) were called active. About 26% were inconclusive and are not listed. The call rests on the fitted dose curve; in most records, active means well fitted curve in the direction sought with a large enough effect; inconclusive means small, poorly fitted or top-dose-only effect, or effect the other way; inactive means no such curve, though single readings can be large or run the other way. These entries were drawn from the full list.
Labels: true = active, false = inactive

compound="CCOC(=O)C1=C(c2ccccc2)N=c2s/c(=C\\c3ccco3)c(=O)n2C1c1cccs1 (stereo not given)" label_class=true
compound=CCOC(=O)/C(C(N)=NCCCO)=C(/O)c1ccccc1 label_class=false
compound="CCOC(=O)C1=C(N)n2c(s/c(=C\\c3ccco3)c2=O)=C(C(=O)OCC)C1c1ccco1 (stereo not given)" label_class=true
compound=COc1ccc(C2=Nc3cccc4cccc(c34)N2)cc1 label_class=false
compound="CCOC(=O)C1=C(c2ccccc2)N=c2s/c(=C\\c3cccc(O)c3)c(=O)n2C1c1cccs1 (stereo not given)" label_class=false
